Please provide measured protein stability index for the entries that follow.
B1: ZNF649 (parent)
chain: YQAGKPDALTKLEQGEPLWTLEDE

variants of: B1; experiment: protein stability index of a GFP-peptide fusion (GPS, HEK-293T) (PSI 1-6); higher = more stable; conditions: c terminus: a fixed tail appended;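 note: lentivirally expressed fusions sorted by FACS into six bins by GFP to DsRed ratio, PSI derived from sequencing read proportions per bin multiplied by bin number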
Please reply with the value in numeric form only.

Prompt: Would you mind telling me what protein stability index value was observed for "L9P" ?
Completion: 4.38

Prompt: Cool, now "G4N"
Completion: 4.92

Prompt: Cool, now "L18T"
Completion: 5.06

Prompt: Cool, now "L9N"
Completion: 3.99

Prompt: Cool, now "K11M"
Completion: 4.77

Prompt: Cool, now "L18R"
Completion: 4.96

Prompt: Cool, now "Q2S"
Completion: 4.99

Prompt: Cool, now "Q14W"
Completion: 4.44

Prompt: Cool, now "E22F"
Completion: 2.05

Prompt: Cool, now "G15S"
Completion: 4.21

Prompt: Cool, now "P6C"
Completion: 4.17
